# Test description: Inhibition of ALR2 in calf lens using D,L-glyceraldehyde as substrate in presence of NADPH by spectrophotometric assay
# Type: tissue-based, Bos taurus
Measurement type: pIC50
Friendly reminder that pIC50 comes from taking -log10 of the concentration in mol/L.

Molecule | pIC50
O=C(O)CCCCCO/N=C(\c1ccnnc1)c1cccc(C(F)(F)F)c1 | 5.00
O=C(O)CCCCO/N=C(\c1cccc(C(F)(F)F)c1)c1ccncn1 | 4.92
O=[N+]([O-])c1ccccc1Sc1ccc(O)cc1 | 6.24
COc1cccc2c1C=CC1CC(=O)N(C/C=C/C(=O)O)N=C21 (stereo not given) | 5.37

Now look at this one.
Please give the measured pIC50 for this molecule: COc1cccc2c1C=CC1CC(=O)N(/C=C/CC(=O)O)N=C21 (stereo not given)
5.41

====

# Assayed system: Tyrosine-protein phosphatase non-receptor type 1 (Homo sapiens, UniProt P18031)
# Sequence (P18031 whole entry): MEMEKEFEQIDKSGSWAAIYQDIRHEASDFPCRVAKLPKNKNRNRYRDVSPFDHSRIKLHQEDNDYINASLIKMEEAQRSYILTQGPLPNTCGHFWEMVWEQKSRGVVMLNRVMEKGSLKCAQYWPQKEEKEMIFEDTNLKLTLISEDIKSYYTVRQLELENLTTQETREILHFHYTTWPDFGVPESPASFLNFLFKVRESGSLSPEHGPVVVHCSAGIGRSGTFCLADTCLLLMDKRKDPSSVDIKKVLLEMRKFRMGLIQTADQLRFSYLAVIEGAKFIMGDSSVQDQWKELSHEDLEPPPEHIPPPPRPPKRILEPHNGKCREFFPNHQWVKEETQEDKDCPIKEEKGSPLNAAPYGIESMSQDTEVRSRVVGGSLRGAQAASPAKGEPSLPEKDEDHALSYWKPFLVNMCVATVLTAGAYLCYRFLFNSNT
# Test description: Inhibition of human PTP1B using pNPP as substrate incubated for 30 min
Measurement type: IC50 (nM)
All answers are understood in nM, so give the number only.

Please give the measured IC50 for this compound: CCCCCCS(=O)(=O)NC(=O)c1ccc(CSCc2ccc(-c3ccccc3)cc2)cc1
280

====

# Assayed system: Receptor-type tyrosine-protein phosphatase alpha (Homo sapiens)
# Sequence (P18433 whole entry): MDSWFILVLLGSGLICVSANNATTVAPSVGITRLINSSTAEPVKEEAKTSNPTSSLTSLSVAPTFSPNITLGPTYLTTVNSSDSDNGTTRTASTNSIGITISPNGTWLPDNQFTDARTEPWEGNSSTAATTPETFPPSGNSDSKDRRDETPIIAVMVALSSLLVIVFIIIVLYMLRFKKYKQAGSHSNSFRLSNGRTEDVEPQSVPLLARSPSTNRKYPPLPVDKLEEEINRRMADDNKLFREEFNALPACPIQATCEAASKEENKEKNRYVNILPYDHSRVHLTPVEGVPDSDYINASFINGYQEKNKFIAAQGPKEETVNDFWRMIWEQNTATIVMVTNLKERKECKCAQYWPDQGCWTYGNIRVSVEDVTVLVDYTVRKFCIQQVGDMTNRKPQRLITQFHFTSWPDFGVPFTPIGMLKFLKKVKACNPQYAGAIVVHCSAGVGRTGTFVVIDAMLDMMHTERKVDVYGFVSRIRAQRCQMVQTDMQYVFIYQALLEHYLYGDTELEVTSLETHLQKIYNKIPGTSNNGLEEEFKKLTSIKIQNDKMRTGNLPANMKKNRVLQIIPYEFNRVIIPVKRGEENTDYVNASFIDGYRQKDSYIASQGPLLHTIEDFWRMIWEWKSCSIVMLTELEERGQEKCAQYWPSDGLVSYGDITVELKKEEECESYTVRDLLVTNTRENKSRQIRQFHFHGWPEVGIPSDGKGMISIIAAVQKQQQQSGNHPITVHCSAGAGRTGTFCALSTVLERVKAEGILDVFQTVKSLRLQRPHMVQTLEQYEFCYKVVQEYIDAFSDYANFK
Measurement type: IC50 (µM)
All answers are understood in µM, so give the number only.

Record O=C(O)[C@H](Cc1ccccc1)Oc1ccc(-c2ccc(-c3c(Cc4ccccc4)oc4ccccc34)cc2)cc1 : what is its IC50 with Receptor-type tyrosine-protein phosphatase alpha (Homo sapiens)?
33.7

====

# Test description: Inhibition of ALR2 in Wistar rat lens using D,L-glyceraldehyde as substrate preincubated for 1 min in presence of NADPH followed by substrate addition and measured after 4 mins by spectrophotometric assay
# Assay type: tissue-based
Measurement type: pIC50
Friendly reminder that pIC50 comes from taking -log10 of the concentration in mol/L.

Please give the measured pIC50 for this molecule: O=C(O)Cn1ccc2cc(OCc3ccccc3)ccc21
6.34
